system: NOMO1; test: cell viability relative to DMSO control; higher = less cytotoxic; settings: HPLM + 10% dialyzed FBS; 48 h; 0.00234 µM
reported-property: cell viability (%)

COc1cccc2c1CCCC2CCCN1CCN(C2CCCCC2)CC1 (stereo not given) : 105
COC1=CC=C2/C3=N/CCN3\C(=N/C2=C1OC)NC(=O)C4=CC=CN=C4 : 132
CC(C)Oc1ccc(C(=O)N[C@H](CNC(=O)CN(C)C)Cc2ccc(-c3cn4cccc([C@H](C)O)c4n3)cc2)cc1Cl : 131
NC(=O)NO : 102
C[C@H]1O[C@H](C[C@H](O)[C@@H]1O)O[C@H]2[C@@H](O)C[C@@H](O[C@@H]2C)O[C@H]3[C@@H](O)C[C@@H](O[C@@H]3C)O[C@H]4CC[C@@]5(C)[C@H](CC[C@@H]6[C@@H]5C[C@@H](O)[C@]7(C)[C@H](CC[C@]67O)C/8=C/C(=O)OC8)C4 : 119
Cc1nc(Nc2n[nH]c3c2CN(C(=O)N[C@H](CN(C)C)c2ccccc2)C3(C)C)c2sccc2n1 : 82.7
CC(NCCc1ccc(O)cc1)C(O)c1ccc(O)cc1 (stereo not given) : 123
Cc1ncc([N+](=O)[O-])n1CC(C)O (stereo not given) : 100
Cc1onc(-c2ccccc2)c1C(=O)N[C@@H]1C(=O)N2[C@@H]1SC(C)(C)[C@@H]2C(=O)[O-].[Na+] : 131
CCN(c1ccccc1)c1cc(NC)[n+](C)c(C)n1 : 123

----------
tested on: SEM cells; test: cell viability relative to DMSO control; higher = less cytotoxic; settings: HPLM + 10% dialyzed FBS; 48 h; 5.12 µM
The entries below are paired with their reported cell viability.
reported-property: cell viability (%)

CC1(C)C(N(O)C(=O)Nc2ccc(Cl)cc2)N(c2ccc(Cl)cc2)C(=O)N1CC(=O)N/N=C/C=C/c1ccc([N+](=O)[O-])o1 (centres undefined) : 52.7
Cc1onc(-c2ccccc2)c1C(=O)N[C@@H]1C(=O)N2[C@@H]1SC(C)(C)[C@@H]2C(=O)[O-].[Na+] : 85.2
Cc1cccc(/C=N/Nc2cc(N3CCOCC3)nc(OCCc3ccccn3)n2)c1 : 82.7
COC1=CC=C2/C3=N/CCN3\C(=N/C2=C1OC)NC(=O)C4=CC=CN=C4 : 87.1
C[S+](=O)([O-])c1ccc(Oc2cc(F)cc(C#N)c2)c2c1[C@H](O)C(F)(F)C2 : 111
CC(COc1ccccc1)N(CCCl)Cc1ccccc1 (centres undefined) : 123
Cc1noc(-c2ccc(CSCCC(=O)O)cc2)c1NC(=O)OC(C)c1ccccc1Cl (centres undefined) : 97.1
COc1cc(C(=O)NS(=O)(=O)c2ccccc2C)ccc1Cc1cn(C)c2ccc(NC(=O)OC3CCCC3)cc12 : 64.4
CC(C)[C@H](N)C(=O)OCCOC[N]1C=NC2=C1\N=C(N)/NC2=O : 103

----------
system: NOMO1; assay: AUC of viability dose-response curve (% viability x log10 dose units); higher = less sensitive; conditions: RPMI 5 mM glucose + 10% dialyzed FBS; 48 h
reported-property: AUC of viability dose-response curve

COC(=O)N1CC2(CC2)C[C@H](C(=O)NO)[C@H]1C(=O)N1CCN(c2ccccc2)CC1 : 373
O=C1NC(=O)/C(=C/c2ccc(-c3ccc(F)cc3O)o2)S1 : 422
CCOc1cc(CC(=O)N[C@@H](CC(C)C)c2ccccc2N2CCCCC2)ccc1C(=O)O : 337
CCN1CCCC1CNC(=O)c1cc([S+](N)(=O)[O-])ccc1OC (stereo not drawn) : 455
C[C@@H]1C[C@H]2[C@@H]3\C=C(C)/C4=C/C5=C(C[C@]4(C)[C@H]3[C@@H](O)C[C@]2(C)[C@@]1(O)C(=O)CO)C=N[N]5C6=CC=CC=C6 : 461
CCN(CC)C(=O)C1=CC=C(C=C1)C/2=C/C3(CCNCC3)OC4=CC=CC(=C24)O : 345
COc1cc(C)c(Sc2cnc(NC(=O)c3ccc(CNC(C)C(C)C)cc3)s2)cc1C(=O)N1CCN(C(C)=O)CC1 (stereo not drawn) : 445
OC(CN1CCN(c2cccc(Cl)c2)CC1)C(c1ccccc1)c1ccccc1 (stereo not drawn) : 341
